Entry source: ChEMBL document CHEMBL4513149

- Test system: Cryptococcus neoformans
- test_conditions: Concentration 20 uM; ASSAY_TEST Inhibition of Fungal Growth; detection method Resazurin; Absorption (OD600-OD570); plate type 384well; NBS; CORNING #3640
- Description: Antifungal activity against Cryptococcus neoformans H99 ATCC 208821 (CO-ADD:FG_002); MIC in YNB media using NBS plates, by Resazurin OD(600-570)
Measured potencies and affinities stand elsewhere.
// reported Inhibition per item
Write the answer as a number in %, unit excluded.

Solved entries:
- compound: "COc1cncc(-c2cncc(N3CCN(c4ccncc4)CC3)n2)c1"
  unit_text: "%"
  experimental_result: 4.32
- compound: "NCCC(O)C(=O)N[C@@H]1C[C@H](N)[C@@H](OC2O[C@H](CN)[C@@H](O)[C@H](O)[C@H]2O)[C@H](O)C1OC1O[C@H](CO)[C@@H](O)[C@H](N)[C@H]1O.O=S(=O)(O)O.O=S(=O)(O)O (some centres undefined)"
  unit_text: "%"
  experimental_result: -2.57
- compound: "Cl.O=C(Nc1ccc(N2CCNCC2)nc1)c1oc(-c2ccccc2)nc1C(F)(F)F"
  unit_text: "%"
  experimental_result: -3.82
- compound: "N#Cc1ccc(-c2cnc(N)c(-c3ccc(C(N)=O)cc3)n2)cc1"
  unit_text: "%"
  experimental_result: -3.91

Query block: // Inhibition lookup, key: "COC(=O)c1c(NC(=O)c2cc3ccccc3oc2=O)sc2c1CCN(Cc1ccccc1)C2"
Result block: -2.1

Query block: Try this compound too: O=C(C(Cc1c[nH]c2ccccc12)NS(=O)(=O)c1ccc(Cl)cc1)N1CCCCC1 (centres undefined)
Result block: -6.5

###

- Tested on: Cryptococcus neoformans
- test_conditions: Concentration 20 uM; ASSAY_TEST Inhibition of Fungal Growth; detection method Resazurin; Absorption (OD600-OD570); plate type 384well; NBS; CORNING #3640
Measured potencies and affinities stand elsewhere.
Catalogue of compounds with associated Inhibition
Provide only the numeric value, understood in %.

- compound: "Cc1nn2c(O)c3c(nc2c1-c1ccc(F)cc1)CCCC3"
  unit_text: "%"
  Inhibition: -6.74

Query block: May I ask what Inhibition has been recorded for "CCc1ccc(S(=O)(=O)Nc2cc(CN3CCN(CCC(C)C)CC3)ccc2C)cc1" ?
Result block: -6.26

Query block: Also "O=C(NCCc1ccccc1)c1cc(-c2cccnc2)cnc1NCC1CC1" , if possible.
Result block: -7.61

Query block: CCc1ccc(C(NCc2nc(N)nc(N(C)C)n2)C(C)C)cc1 (stereo unspecified) , same question.
Result block: -4.27

Query block: Same lookup for CC(C)n1ncc2c(C(=O)NCC(c3cccs3)N3CCOCC3)cc(-c3ccccc3)nc21 (stereo unspecified) , please.
Result block: -15.65

Query block: Entry "Cc1ccc2nc(Cl)c(CNCc3cccs3)cc2c1" please
Result block: -15.9

Query block: How about this compound: Cc1ccc(NC(=O)CC2COc3ccccc3O2)cc1Cl (stereo unspecified)
Result block: -13.17

Query block: Again, but for "O=C(N[C@H](Cc1ccccc1)C(=O)Nc1ccccc1N1CCOCC1)c1cccs1"
Result block: -4.85

Query block: Field entry: "Cc1cc(C)n2nc(C(=O)Nc3cc(C(F)(F)F)ccc3N3CCOCC3)nc2n1"
Result block: -4.53

Query block: Ok, now "COC(=O)c1c(NC(=O)c2c(F)c(F)c(F)c(F)c2F)sc2c1CCCCC2"
Result block: -13.49

Query block: Check "O=C(Nc1c(O)cccc1-c1nc2c(C(=O)O)cccc2o1)c1cc(-c2ccccc2)on1" too.
Result block: -10.86
